Provenance of the data: paper PMC4090259

# System: ReNcell VM cells
# Format: cell-based, human
# Particulars: Homo sapiens, ReNcell VM
Hi there, I'd appreciate the recorded IC50 for every entry that follows.
Response body: numeric value in mM, unit text excluded.

In plain terms, C[C@@H]1C[C@H]2[C@@H]3CCC4=CC(=O)C=C[C@]4(C)[C@@]3(F)[C@@H](O)C[C@]2(C)[C@@]1(O)C(=O)CO has a documented IC50 of 2

In plain terms, CC(=O)Nc1ccc(O)cc1 has a documented IC50 of 2.4
